B1: AtSEP3 (…3), wild type, in pGADT7 [Arabidopsis thaliana] / AtAP1 (APETALA1), in pGBKT7 [Arabidopsis thaliana] (parent complex)
chain 1: MGRGRVELKRIENKINRQVTFAKRRNGLLKKAYELSVLCDAEVALIIFSNRGKLYEFCSSSSMLRTLERYQKCNYGAPEPNVPSREALAVELSSQQEYLKLKERYDALQRTQRNLLGEDLGPLSTKELESLERQLDSSLKQIRALRTQFMLDQLNDLQSKERMLTETNKTLRLRLADGYQMPLQLNPNQEEVDHYGRHHHQQQQHSQAFFQPLECEPILQIGYQGQQDGMGAGPSVNNYMLGWLPYDTNSI
chain 2: not shown

variants of: B1; assay: yeast two-hybrid β-galactosidase activity assay; parent: 26; read off a plot
Catalogue of variants with associated response

Supply measured response of chain 1 L115A in your reply.
~13 β-galactosidase units

Supply measured response of chain 1 L108A in your reply.
~15 β-galactosidase units

Supply measured response of chain 1 L99A in your reply.
~16 β-galactosidase units

Supply measured response of chain 1 L120A in your reply.
~8.7 β-galactosidase units

Supply measured response of chain 1 L101A in your reply.
~14 β-galactosidase units

Please find the next variant below.
Supply measured response of chain 1 L116A in your reply.
~11 β-galactosidase units
